# credit: patent US7390789B2

target_of_assay: rat membrane aminopeptidase P (Rattus norvegicus, UniProt Q99MA2)
method_notes: Inhibition of purified rat membrane aminopeptidase P with Arg-Pro-Pro substrate
Format: biochemical
run_parameters: rat mAPP; read-out: IC50
measured_parameter: pIC50
Please note pIC50 is a logarithmic value: minus log10 of concentration in mol/L. Answer with that number alone.

Record summary for CC(NC(=O)C1CCCN1C(=O)C1CCCN1C(=O)CS)C(N)=O (stereo not shown) : reported pIC50 = 5.47

====

target_of_assay: rat membrane aminopeptidase P (Rattus norvegicus)
Sequence (Q99MA2 23-650): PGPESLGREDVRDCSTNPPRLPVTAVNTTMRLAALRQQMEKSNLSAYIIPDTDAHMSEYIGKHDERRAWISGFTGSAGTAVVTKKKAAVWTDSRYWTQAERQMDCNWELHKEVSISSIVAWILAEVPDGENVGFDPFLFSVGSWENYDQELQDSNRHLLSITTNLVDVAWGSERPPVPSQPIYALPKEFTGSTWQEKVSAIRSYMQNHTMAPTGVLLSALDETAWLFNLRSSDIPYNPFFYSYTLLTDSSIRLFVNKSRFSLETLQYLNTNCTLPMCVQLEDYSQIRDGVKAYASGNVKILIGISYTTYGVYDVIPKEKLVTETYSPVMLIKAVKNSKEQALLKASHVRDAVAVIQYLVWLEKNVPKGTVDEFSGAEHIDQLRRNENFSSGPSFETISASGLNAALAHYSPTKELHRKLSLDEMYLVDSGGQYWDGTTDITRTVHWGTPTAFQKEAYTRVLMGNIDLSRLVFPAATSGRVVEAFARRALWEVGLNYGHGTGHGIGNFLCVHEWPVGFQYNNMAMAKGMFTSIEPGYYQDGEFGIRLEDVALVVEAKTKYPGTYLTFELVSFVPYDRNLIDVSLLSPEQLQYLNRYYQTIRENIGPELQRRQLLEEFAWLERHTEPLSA
method_notes: Inhibition of purified rat membrane aminopeptidase P with Arg-Pro-Pro substrate
Assay type: biochemical
run_parameters: purified rat membrane aminopeptidase P; Arg-Pro-Pro (0.5 mM) as the substrate; read-out: Binding affinity (IC50 in nanomolar)
Protocol: The IC50 for each of compounds IV-VIII was determined as the concentration in nmoles/liter (nM) required to inhibit rat membrane aminopeptidase P by 50% using Arg-Pro-Pro (0.5 mM) as the substrate. […] See Maggiora et al.,
measured_parameter: pIC50
Answer as the number alone; pIC50 is minus log10 of concentration in mol/L.

>>> df
                                   molecule                           target_of_assay  endpoint_result
0  O=C(O)CCNC(=O)[C@@H]1CCCN1C(=O)[C@@H]1CCCN1C(=O)[C@@H](S)C1CCCCC1  rat membrane aminopeptidase P (Rattus norvegicus)             7.06
1  CCCCC(S)C(=O)N1CCCC1C(=O)N1C(C)CCC1C(=O)NC(C)C(N)=O (stereo not shown)  rat membrane aminopeptidase P (Rattus norvegicus)             6.77

Tested system rat membrane aminopeptidase P (Rattus norvegicus); pIC50 recorded for CCCCC(S)C(=O)N1CCCC1C(=O)N1CCCC1C(=O)NC(C)C(N)=O (stereo not shown) was 6.89

Tested on rat membrane aminopeptidase P (Rattus norvegicus): CCC(C)C(S)C(=O)N1CCCC1C(=O)N1CCCC1C(=O)NC(C)C(N)=O (stereo not shown) . Observed pIC50: 8.00
